# test.method.notes: SDT Cancer Cell Toxicity qHTS against the NCATS CANVASS Library (AID 1347365);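 further: SDT canine glioma cells 500 per well in 1536 well plates; nearly all actives have a fitted effect of over 60% in size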
# measurement.setup: SDT dog glioma viability, ATP luminescence, 72 h; series mostly up to 46.1 µM
Results filed as inconclusive are left out. The source made the active and inactive calls. The call rests on the fitted dose curve; in most records, active means well fitted cell-killing curve with a large enough effect; inconclusive means small, poorly fitted or top-dose-only effect; inactive means flat fitted curve, though single readings scatter.
readout.kind: outcome

Consider the molecule C=C[C@]12C=CCN3CC[C@@]4(c5ccccc5NC(=O)[C@@H]4C1)[C@@H]32 . State its measured outcome.
inactive

Consider the molecule C=CC(C)(C)[C@@]12C[C@H]3C(=O)N/C(=C\c4cnc[nH]4)C(=O)N3[C@@H]1Nc1ccccc12 . State its measured outcome.
inactive

Consider the molecule CCCCC1CC[C@H]2CCCC(CCC)N12 (stereo partly drawn) . State its measured outcome.
inactive

---

# test.method.notes: Cell Viability - SH-SY5Y (AID 544);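 further: cells exposed to compound for 40 hours; nearly all actives have a fitted effect of over 55% in size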
# measurement.setup: SH-SY5Y neuroblastoma cell viability
Results filed as inconclusive are left out. Active and inactive are the calls of the source. The call rests on the fitted dose curve; in most records, active means well fitted cell-killing curve with a large enough effect; inconclusive means small, poorly fitted or top-dose-only effect; inactive means flat fitted curve, though single readings scatter.
Pick one: t (active), f (inactive)

Recorded results for 3 compounds are shown here.
Status in this test for C[C@]12CC[C@H]3[C@@H](CCC4=CC(=O)CC[C@@]43C)[C@@H]1CC[C@@H]2O ?
f

Status in this test for Nc1ccccc1Cl ?
f

Status in this test for Cc1ccc(O)c(C)c1 ?
f

Next:
Status in this test for C=C(C)C#N ?
f

Status in this test for Cc1ccc([N+](=O)[O-])cc1C ?
f

Status in this test for Brc1ccccc1 ?
f

Status in this test for S=C=Nc1cccc2ccccc12 ?
f

Status in this test for C=CCOC(=O)c1ccccc1N ?
f

---

# test.method.notes: Cell Viability - LYMP2-025 (AID 976);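 further: cells exposed to compound for 24 h at 37 °C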
# measurement.setup: LYMP2-025 lymphoblastoid cell viability; series mostly up to 92.2 µM
Results filed as inconclusive are left out. Activity calls are given as the source filed them. Calls come from the whole dose curve; as a rule, active = well fitted cell-killing curve with a large enough effect; inconclusive = small, poorly fitted or top-dose-only effect; inactive = flat fitted curve, though single readings scatter.
Pick one: active, inactive

Status in this test for O=C=NC1CCCCC1 ?
inactive

Status in this test for O=C1C(Cl)=C(Cl)C(=O)C(Cl)=C1Cl ?
active

Status in this test for C[C@]12CC[C@H]3[C@@H](CCC4=CC(=O)CC[C@@]43C)[C@@H]1CC[C@@H]2O ?
inactive

Status in this test for c1ccc(OP(Oc2ccccc2)Oc2ccccc2)cc1 ?
inactive

Status in this test for Clc1cccc(C(Cl)(Cl)Cl)n1 ?
inactive

Status in this test for C=CC1CC=CCC1 (stereo not drawn) ?
inactive

Next:
Status in this test for CC(C)(OO)c1ccccc1 ?
inactive

Status in this test for CCNc1nc(Cl)nc(NC(C)C)n1 ?
inactive

Status in this test for Oc1ccc(Cl)cc1Cl ?
inactive

Status in this test for CC(=O)[O-].CC(=O)[O-].O.O.O.[Pb+2] ?
inactive

Status in this test for ClC(Cl)(Cl)c1ccccc1 ?
inactive

Status in this test for CC(C)(c1ccccc1)c1ccc(O)cc1 ?
inactive

Status in this test for C=C(Cl)Cl ?
inactive

Status in this test for COC(=O)NC(=S)Nc1ccccc1NC(=S)NC(=O)OC ?
inactive

Status in this test for CCCSC(=O)Cl ?
inactive

Status in this test for c1nc[nH]n1 ?
inactive

Status in this test for Cc1ccc2ccccc2c1 ?
inactive

Status in this test for COC1=CC(=O)OC(CCc2ccccc2)C1 (stereo not drawn) ?
inactive

Status in this test for ClC(Cl)=C(Cl)C(Cl)=C(Cl)Cl ?
inactive
